Attribution: patent US20240425606A1

Biological target: T1, human IL-11Rα (human, UniProt Q14626 23-363, limits assumed)
T1 construct: Protein coated on ELISA plates and used in solution for BLI; also called hIL-11Rα; hIL-11R
T1 sequence: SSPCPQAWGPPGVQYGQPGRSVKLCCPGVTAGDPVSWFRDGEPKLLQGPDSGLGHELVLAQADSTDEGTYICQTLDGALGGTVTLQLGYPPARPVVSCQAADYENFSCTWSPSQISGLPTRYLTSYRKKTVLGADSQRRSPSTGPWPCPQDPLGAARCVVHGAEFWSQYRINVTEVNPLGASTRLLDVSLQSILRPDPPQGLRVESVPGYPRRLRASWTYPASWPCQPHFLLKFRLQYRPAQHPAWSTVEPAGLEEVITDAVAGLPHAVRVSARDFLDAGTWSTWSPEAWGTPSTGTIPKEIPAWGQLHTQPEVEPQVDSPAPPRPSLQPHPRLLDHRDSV
Assay: BLI (Octet RED96e), mAb on protein G biosensors, hIL-11Rα in solution
assayMetric: kon (M⁻¹ s⁻¹)

mAb8 (antibody, V domains shown, Expressed as human IgG4 (S228P EU)) VH: EVQLLESGGGLVQPGGSLRLSCAASGFTFSSYAMSWVRQAPGKGLEWVSSIVPYGDLTQYADSVKGRFTISRDNSKNTLYLQMNSLRAEDTAVYYCAKGPGWGSFDLWGRGTLVTVSS VL: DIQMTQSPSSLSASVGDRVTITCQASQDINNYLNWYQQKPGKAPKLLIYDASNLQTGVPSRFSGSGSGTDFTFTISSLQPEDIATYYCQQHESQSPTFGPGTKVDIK ... 65100
mAb7 (antibody, V domains shown, Expressed as human IgG4 (S228P EU)) VH: EVQLLESGGGLVQPGGSLRLSCAASGFTFSNYAMSWVRQAPGKGLEWVSSIVPYGDLTQYADSVKGRFTISRDNSKNTLYLQMNSLRAEDTAVYYCAKGPGWGSFDLWGRGTLVTVSS VL: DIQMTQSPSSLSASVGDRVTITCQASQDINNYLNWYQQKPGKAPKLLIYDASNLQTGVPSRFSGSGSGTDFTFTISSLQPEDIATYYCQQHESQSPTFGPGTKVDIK ... 63500
mAb10 (antibody, V domains shown, Expressed as human IgG4 (S228P EU)) VH: EVQLLESGGGLVQPGGSLRLSCAASGFTFSWYSMTWVRQAPGKGLEWVSSIVAYGDLTQYADSVKGRFTISRDNSKNTLYLQMNSLRAEDTAVYYCAKGPGWGSFDLWGRGTLVTVSS VL: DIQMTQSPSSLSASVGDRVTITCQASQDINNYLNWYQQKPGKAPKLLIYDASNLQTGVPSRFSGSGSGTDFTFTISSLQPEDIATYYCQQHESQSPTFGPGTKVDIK ... 840000
mAb12 (antibody, V domains shown, Expressed as human IgG4 (S228P EU)) VH: EVQLLESGGGLVQPGGSLRLSCAASGFTFSWYSMTWVRQAPGKGLEWVSSIVPYGDLTQYADSVKGRFTISRDNSKNTLYLQMNSLRAEDTAVYYCAKGPGWYSFDLWGRGTLVTVSS VL: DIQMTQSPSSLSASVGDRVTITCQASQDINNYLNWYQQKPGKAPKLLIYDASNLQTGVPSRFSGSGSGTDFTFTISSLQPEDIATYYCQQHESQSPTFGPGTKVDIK ... 58100
